- Test system: HL-60(TB) leukemia
- testMethodNotes: NCI tumour cell line growth inhibition, 48 h
measuredEndpoint: TGI (µM)
Form entry: value (µM) — number only.

# compound, measuredEndpoint, recordedNumber
measured = [
    ("Nc1nc(Cl)cc(NCC2(CO)CC(CCCCc3ccccc3)C2)n1 (stereo not given)", "TGI", 38.3),
]

// query Given the entry O=Nc1c(-c2cccc([N+](=O)[O-])c2)nc2ncccn12 , report its measured TGI.
// result 6.15

// query Given the entry O=c1c(-c2ccccc2)c[nH]c2cc([N+](=O)[O-])c(/C(Cl)=C/c3ccccc3)cc12 , report its measured TGI.
// result 31.6

###

Listing of recorded TGI by entry.
- Tested on: IGROV1 ovarian
- testMethodNotes: NCI tumour cell line growth inhibition, 48 h

Observe how each entry below is paired with its result.
# compound, testSystem, TGI
records = [
    ("Cc1c2cc[n+](C)cc2c(C)c2c1[nH]c1ccc(O)cc12", "IGROV1 ovarian", "> 100 µM"),
    ("CCOC(=O)c1c(NC(=S)NCc2ccccc2)sc2c1CCN(C)C2", "IGROV1 ovarian", "> 100 µM"),
]

// query Given the entry COC(=O)C1Cc2c([nH]c3ccccc23)-c2[nH]c3ccccc3c2CC(NC(C)=O)C(=O)NCC(=O)N1 (stereo not given) , report its measured TGI.
// result > 100 µM

// query Given the entry CSC(=S)N/N=C(\C)c1ccccn1 , report its measured TGI.
// result 17.4 µM

// query Given the entry COc1ccc(C2CC(c3cc(OC)c(OC)c(OC)c3)=NN2)cc1 (stereo not given) , report its measured TGI.
// result > 100 µM

// query Given the entry Cc1c(Cl)cccc1NC(=O)C(=O)C1C(=O)NC(=O)NC1=O , report its measured TGI.
// result > 100 µM

// query Given the entry CCCCCCCCCCCCC(Br)C(=O)SCCNC(=O)CCNC(=O)[C@@H](O)C(C)(C)COP(=O)(O)OP(=O)(O)OCC1OC(n2cnc3c(N)ncnc32)C(O)C1OP(=O)(O)O (stereo not given in full) , report its measured TGI.
// result > 56.5 µM

// query Given the entry Cc1nc2c(=O)[nH]c(=O)nc-2n(CCO)c1C , report its measured TGI.
// result > 100 µM

// query Given the entry OC1(c2ccc(Cl)cc2)c2ccccc2C2=Nc3ccccc3CN21 (stereo not given) , report its measured TGI.
// result > 81.3 µM

// query Given the entry O=Cc1cc(O)c(O)c(O)c1-c1c(C=O)cc(O)c(O)c1O , report its measured TGI.
// result > 100 µM

###

- Test system: SK-MEL-5 melanoma
- testMethodNotes: NCI tumour cell line growth inhibition, 48 h
Classify as follows. Reported TGI greater than or equal to 20 µM: True. Reported TGI below: False.

// query Please check the record CC1(c2cccc(C3CCC4(C=CC3=O)OCCO4)c2)OCCO1 (stereo not drawn) and state if its TGI is at or above 20 µM.
// result True

// query Please check the record Fc1ccc(Nc2nc(Nc3ccc(-c4nc5ccccc5[nH]4)cc3)nc(N3CCCC3)n2)cc1 and state if its TGI is at or above 20 µM.
// result True

// query Please check the record Cc1ccc(S(=O)(=O)N2CCCCC2CCO)cc1 (stereo not drawn) and state if its TGI is at or above 20 µM.
// result True

// query Please check the record COc1cc(/C=C\c2ccc(SC)cc2)cc(OC)c1OC and state if its TGI is at or above 20 µM.
// result False

// query Please check the record COc1ccc2c(c1)CCC(CN1CCN(CCOC(c3ccc(F)cc3)c3ccc(F)cc3)CC1)=C2 and state if its TGI is at or above 20 µM.
// result False

###

- Test system: T-47D breast
- testMethodNotes: NCI tumour cell line growth inhibition, 48 h
measuredEndpoint: TGI

Observe how each entry below is paired with its result.
# compound, result
data = [
    ("CO/N=C1/c2cc(OC)ccc2-c2c(NOC)nc3ccccc3c21", "> 100 µM"),
    ("COc1ccc2c(CNCCCCO)cc3cc4c(cc3c2c1)OCO4", "> 46.7 µM"),
    ("CCC1=C(C)C2=NC1=CC1=NC(=C(CC)/C1=C/O)C=C1N=C3C(=C1C)C(=O)C(C(=O)OC)C3=C1NC(=C2)C(C)C1CCC(=O)OC (stereo unspecified)", "> 100 µM"),
    ("CC(O)CN(CCN(CC(C)O)CC(C)O)CC(C)O.O=[N+]([O-])O.[Cu+2] (stereo unspecified)", "> 100 µM"),
    ("Cc1ccc(S(=O)/C=C(\\NC(=O)OCc2ccccc2)C(F)(F)F)cc1 (stereo unspecified)", "> 100 µM"),
]

Now let's try a different one.
// query Given the entry CCCNc1nc(-c2ccc(OC)cc2)nc2ccccc12 , report its measured TGI.
// result > 100 µM

###

- Tested on: HCC-2998 colon
- testMethodNotes: NCI tumour cell line growth inhibition, 48 h
Where a SMILES comes first, the peptide text is derived from it. The star is where a group is joined. Boc = CC(C)(C)OC(=O)*; OBn = c1ccc(CO*)cc1; Bn = c1ccc(C*)cc1
measuredEndpoint: log10 of TGI (log10 of the value in µM)
Short version: log10 scale, TGI, µM.

# compound, log10 of TGI
records = [
    ("CC(C)CC(NC(=O)C(Cc1ccccc1)NC(=O)C(COCc1ccccc1)NC(=O)OC(C)(C)C)C(=O)OCc1ccccc1 (stereo not drawn) (Boc-Ser(Bn)-Phe-Leu-OBn; configuration not given here)", 1.44),
    ("NC(=O)NC(=O)CI", 1.55),
    ("CCCCc1cc2c(cc1O)CCC1C2CC[C@@]2(C)C1CC[C@@H]2O (stereo partly specified)", 1.71),
    ("Cc1cc(SCC(=O)c2ccc(Br)cc2)cc(C)[o+]1", 1.88),
    ("c1ccc(COc2nc3ccc(C45CC6CC(CC(C6)C4)C5)cc3[nH]2)cc1", 1.75),
]

// query Given the entry CCCCN(CCCC)CC(=O)c1ccc2cc(Cl)c3ccccc3c2c1 , report its measured log10 of TGI.
// result 1.89

// query Given the entry O=C(OCCOCCOC(=O)c1c[nH]cc1-c1ccccc1)c1c[nH]cc1-c1ccccc1 , report its measured log10 of TGI.
// result 1.63

// query Given the entry CSC(=S)N/N=C(\C)c1ccccn1 , report its measured log10 of TGI.
// result 1.21

// query Given the entry N#Cc1nn(-c2ccc(Cl)cc2)c(N)c2c(=N)n3nc(-c4ccccc4)cc3nc12 , report its measured log10 of TGI.
// result -1.87

// query Given the entry CCCCOC(=O)N[C@H]1CCc2cc(OC)c(OC)c(OC)c2-c2ccc(SC)c(=O)cc21 , report its measured log10 of TGI.
// result 0.36

// query Given the entry C=C1C(=O)O[C@H]2[C@H]1CC/C(COC(=O)CCC(=O)OC/C1=C/CC[C@@]3(C)O[C@H]3[C@H]3OC(=O)C(=C)[C@@H]3CC1)=C\CC[C@@]1(C)O[C@@H]21 , report its measured log10 of TGI.
// result 0.64

// query Given the entry Cc1nn(-c2ccccc2)c(C)c1/C=N/NC(=O)c1sc(=S)n(-c2ccc(Cl)cc2)c1N , report its measured log10 of TGI.
// result 1.95

// query Given the entry CC1(c2cccc(C3CCC4(C=CC3=O)OCCO4)c2)OCCO1 (stereo unspecified) , report its measured log10 of TGI.
// result 1.52

// query Given the entry CC(=O)C1=CC=C/C1=N\Nc1ccccc1 , report its measured log10 of TGI.
// result 1.31

// query Given the entry COc1cc2c(/C=C3\C(=O)Nc4ccc(Br)cc43)c(Cl)n(C)c2cc1C , report its measured log10 of TGI.
// result 0.66

// query Given the entry COC(=O)c1ccc(/C=C/C2=CC(=O)C=CC2=O)cc1 , report its measured log10 of TGI.
// result 1.59

// query Given the entry O=C(/C=N/O)c1c(-c2ccccc2)[nH]c(-c2ccccc2)c1-c1ccccc1 , report its measured log10 of TGI.
// result 1.76

###

- System: SK-MEL-2 melanoma
- testMethodNotes: NCI tumour cell line growth inhibition, 48 h
measuredEndpoint: TGI (µM)
Form entry: value (µM) — number only.

# compound, measuredEndpoint, unitDescriptor, recordedNumber
rows = [
    ("Fc1ccc(Nc2nc(Nc3ccc(-c4nc5ccccc5[nH]4)cc3)nc(N3CCCC3)n2)cc1", "TGI", "µM", 28),
    ("C=C1C(=O)O[C@H]2[C@H]1CC/C(Cn1cc(CCC)nn1)=C\\CC[C@@]1(C)O[C@@H]21", "TGI", "µM", 34.5),
]

// query Given the entry COc1ccccc1NC(=S)N/N=C(/c1ccccc1)c1ccccn1 , report its measured TGI.
// result 21.7

// query Given the entry COc1ccc(-n2c(N)c(C(=O)NCCN3CCOCC3)c3nc4ccccc4nc32)cc1OC , report its measured TGI.
// result 42.8
